Origin of the recorded values: patent US20250320312A1

# ASSAY TARGET: T1, Peptide 8: Biotin-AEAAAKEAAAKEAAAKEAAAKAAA-Tyr-acid (N-terminal biotin; C-terminal acid)
# T1 construct: Control peptide without PC
# T1 peptide: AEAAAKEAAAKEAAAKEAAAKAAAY
# ASSAY PROCEDURE: scFv ELISA
OUTCOME MEASURE: OD450 (OD450)
Express your answer in OD450, writing the number without its unit.

>>> data_value("PcOxP_DB04_C10 (scFv, V domains shown, scFv in periplasmic extract) VH: EVQLLESGGGLVQPGGSLRLSCAASGFTFSDGYMEWVRQAPGKGLEWVAAIRNKANDYTTEYADSVKGRFTISRDNSKNTLYLQMNSLRAEDTAVYYCARDYYGSHYWYFDVWGQGTLVTVSS VL: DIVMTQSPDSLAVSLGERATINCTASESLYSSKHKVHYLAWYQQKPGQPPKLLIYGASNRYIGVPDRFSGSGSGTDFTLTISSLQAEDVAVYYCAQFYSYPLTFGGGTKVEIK")
0.05

Request the reported OD450 associated with PcOxP_DB04_D10 (scFv, V domains shown, scFv in periplasmic extract) VH: EVQLLESGGGLVQPGGSLRLSCAASGFTGSDFYMEWVRQAPGKGLEWVAASRWKANDYTTEYADSVKGRFTISRDNSKNTLYLQMNSLRAEDTAVYYCARDYYGSSYWYFDVWGQGTLVTVSS VL: DIVMTQSPDSLAVSLGERATINCTASESLYSTKHKVHYLAWYQQKPGQPPKLLIYGASHRYIGVPDRFSGSGSGTDFTLTISSLQAEDVAVYYCAQFYQYPLTFGGGTKVEIK 0.05

Request the reported OD450 associated with PcOxP_DB04_A05 (scFv, V domains shown, scFv in periplasmic extract) VH: EVQLLESGGGLVQPGGSLRLSCAASGFTFSDFYIEWVRQAPGKGLEWVAASRNKANDYTTEYADSVKGRFTISRDNSKNTLYLQMNSLRAEDTAVYYCARDYYGSSYWYFDVWGQGTLVTVSS VL: DIVMTQSPDSLAVSLGERATINCTASESLYSSKHKVHYLAWYQQKPGQPPKLLIYGASNREIGVPDRFSGSGSGTDFTLTISSLQAEDVAVYYCAQFYSYPLTFGGGTKVEIK 0.04
